Field: IC20. Provide a value for each of the compounds that follow.
Molecular target: P-glycoprotein (ABCB1, MDR1) (Homo sapiens)
Assay: Human MDR1 Pgp inhibitory activity by using standard calcein-AM efflux method with the human leukemia CEM cells.
Format: cell-based, CCRF-CEM
Conditions: probe calcein-AM

Record `CC[C@@H](C)[C@@H]1NC(=O)[C@@H]2CCCN2C(=O)[C@H]([C@H](O)c2ccccc2)N(C)C(=O)[C@H](Cc2ccccc2)NC(=O)[C@H](C(C)C)N(C)C(=O)[C@@H]([C@@H](C)CC)OC(=O)[C@H](C(C)C)N(C)C(=O)[C@H](CC(C)C)NC(=O)[C@H](C(C)C)N(C)C1=O` . Reported IC20: 0.46 µM

Documented IC20 of CC[C@H](C)[C@@H]1NC(=O)[C@@H]2CCCN2C(=O)[C@H](Cc2ccccc2)N(C)C(=O)[C@H](Cc2ccccc2)NC(=O)[C@H](C(C)C)N(C)C(=O)[C@@H]([C@@H](C)CC)OC(=O)C(C(C)(C)O)N(C)C(=O)[C@H](CC(C)C)NC(=O)[C@H](C(C)C)N(C)C1=O (some centres not stated) : 0.1 µM

Summary for this compound, `CC[C@@H](C)[C@@H]1NC(=O)[C@@H]2CCCN2C(=O)[C@H](Cc2ccccc2)N(C)C(=O)[C@H](Cc2ccccc2)NC(=O)[C@H](C(C)C)N(C)C(=O)[C@@H]([C@@H](C)CC)OC(=O)[C@H](C(C)(C)O)N(C)C(=O)[C@H](CC(C)C)NC(=O)[C@H](C(C)C)NC1=O` : IC20 is 2.67 µM

Form field IC20, entry `CC[C@H](C)[C@@H]1NC(=O)[C@@H]2CCCN2C(=O)[C@@H](C)N(C)C(=O)[C@H](Cc2ccc(O)cc2)NC(=O)[C@H](C(C)C)N(C)C(=O)[C@@H]([C@@H](C)CC)OC(=O)[C@H](C(C)(C)O)N(C)C(=O)[C@H](CC(C)C)NC(=O)[C@H](C(C)C)N(C)C1=O` : 2.12 µM

Reported IC20 for `CC[C@@H](C)[C@@H]1NC(=O)[C@@H]2CCCN2C(=O)[C@H](Cc2ccccc2)N(C)C(=O)[C@H](Cc2ccccc2)NC(=O)[C@H](C(C)C)N(C)C(=O)[C@@H]([C@@H](C)CC)OC(=O)[C@H]([C@H](C)CO)N(C)C(=O)[C@H](CC(C)C)NC(=O)[C@H](C(C)C)N(C)C1=O` was 0.36 µM

`CC[C@@H](C)[C@@H]1NC(=O)[C@@H]2CCCN2C(=O)[C@H](Cc2ccccc2)N(C)C(=O)[C@H](C2CCCCC2)NC(=O)[C@H](C(C)C)N(C)C(=O)[C@@H]([C@@H](C)CC)OC(=O)[C@H](C(C)(C)O)N(C)C(=O)[C@H](CC(C)C)NC(=O)[C@H](C(C)C)N(C)C1=O` yielded IC20 of 1.45 µM

Data point: `CC[C@@H](C)[C@@H]1NC(=O)CCCCCCCNC(=O)[C@H](C(C)C)N(C)C(=O)[C@@H]([C@@H](C)CC)OC(=O)[C@H](C(C)(C)O)N(C)C(=O)[C@H](CC(C)C)NC(=O)[C@H](C(C)C)N(C)C1=O` ; IC20 = 2.63 µM

###

Target: P-glycoprotein (ABCB1, MDR1) (Homo sapiens, UniProt P08183)
Sequence (P08183 whole entry): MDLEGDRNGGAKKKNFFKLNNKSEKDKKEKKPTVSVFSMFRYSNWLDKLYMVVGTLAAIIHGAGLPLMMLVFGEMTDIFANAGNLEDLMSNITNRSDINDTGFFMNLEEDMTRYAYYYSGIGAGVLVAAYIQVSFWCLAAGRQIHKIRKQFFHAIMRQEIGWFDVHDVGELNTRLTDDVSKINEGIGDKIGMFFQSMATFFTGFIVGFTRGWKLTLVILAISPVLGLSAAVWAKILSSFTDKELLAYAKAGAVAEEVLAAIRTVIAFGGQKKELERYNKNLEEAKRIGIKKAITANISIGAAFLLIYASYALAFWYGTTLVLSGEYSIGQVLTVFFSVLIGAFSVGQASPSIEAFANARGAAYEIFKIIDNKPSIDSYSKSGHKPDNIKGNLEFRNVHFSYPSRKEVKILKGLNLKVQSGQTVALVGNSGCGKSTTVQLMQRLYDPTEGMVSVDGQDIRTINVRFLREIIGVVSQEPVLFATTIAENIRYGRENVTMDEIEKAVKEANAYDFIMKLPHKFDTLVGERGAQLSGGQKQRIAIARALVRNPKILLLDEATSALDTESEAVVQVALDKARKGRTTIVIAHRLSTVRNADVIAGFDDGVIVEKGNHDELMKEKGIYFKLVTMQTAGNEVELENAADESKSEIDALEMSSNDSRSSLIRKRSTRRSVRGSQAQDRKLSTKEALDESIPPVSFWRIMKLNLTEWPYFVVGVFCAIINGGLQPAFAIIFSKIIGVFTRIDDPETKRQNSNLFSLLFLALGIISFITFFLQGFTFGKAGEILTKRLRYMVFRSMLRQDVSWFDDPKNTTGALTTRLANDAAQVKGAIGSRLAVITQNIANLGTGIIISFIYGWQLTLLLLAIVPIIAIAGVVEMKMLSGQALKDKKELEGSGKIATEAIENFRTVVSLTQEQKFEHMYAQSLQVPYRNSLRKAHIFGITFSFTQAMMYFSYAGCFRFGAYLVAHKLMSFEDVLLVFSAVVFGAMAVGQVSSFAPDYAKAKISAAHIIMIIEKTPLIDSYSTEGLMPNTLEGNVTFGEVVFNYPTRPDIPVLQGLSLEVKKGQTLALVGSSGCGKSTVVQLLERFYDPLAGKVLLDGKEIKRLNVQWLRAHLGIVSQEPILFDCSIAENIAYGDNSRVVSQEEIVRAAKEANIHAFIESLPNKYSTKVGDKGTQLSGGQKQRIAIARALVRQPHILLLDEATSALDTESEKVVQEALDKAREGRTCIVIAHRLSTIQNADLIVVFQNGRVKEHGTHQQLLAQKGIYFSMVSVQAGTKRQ
Test: Human MDR1 Pgp inhibitory activity by using standard calcein-AM efflux method with the human leukemia CEM cells.
Type: cell-based, CCRF-CEM
Conditions: probe calcein-AM
Kind request: treat 800 nM as inclusive, so IC20 at 800 nM or higher is True, anything lower is False.

API: above_or_equal(metric=IC20, cutoff=800 nM) for item `CC[C@H](C)[C@@H]1NC(=O)[C@H]2CCCN2C(=O)[C@H](Cc2ccccc2)N(C)C(=O)[C@H](Cc2ccccc2)NC(=O)[C@H](C(C)C)N(C)C(=O)[C@@H]([C@@H](C)CC)OC(=O)[C@H](C(C)(C)O)N(C)C(=O)[C@H](CC(C)C)NC(=O)[C@H](C(C)C)N(C)C1=O`
True

Check if IC20 >= 800 nM (inclusive). Item: `CC[C@@H](C)[C@@H]1NC(=O)[C@@H]2CCCN2C(=O)[C@H](Cc2ccccc2)N(C)C(=O)[C@H](Cc2ccccc2)NC(=O)[C@H](C(C)C)N(C)C(=O)[C@@H]([C@@H](C)CC)OC(=O)[C@]2(OC2(C)C)N(C)C(=O)[C@H](CC(C)C)NC(=O)[C@H](C(C)C)N(C)C1=O`
False

Evaluate `CC[C@H](C)[C@@H]1NC(=O)[C@@H]2CCCN2C(=O)[C@H](Cc2ccccc2)N(C)C(=O)[C@H](Cc2ccccc2)NC(=O)[C@H](C(C)C)N(C)C(=O)[C@@H]([C@@H](C)CC)OC(=O)[C@H](C(C)(C)O)N(C)C(=O)[C@H](CC(C)C)NC(=O)[C@@H](C(C)C)N(C)C1=O` : IC20 at minimum 800 nM?
True

Does the molecule `CC[C@H](C)[C@@H]1NC(=O)[C@@H]2CCCN2C(=O)[C@@H](C)N(C)C(=O)[C@H](CO)NC(=O)[C@H](C(C)C)N(C)C(=O)[C@@H]([C@@H](C)CC)OC(=O)[C@H](C(C)(C)O)N(C)C(=O)[C@H](CC(C)C)NC(=O)[C@H](C(C)C)N(C)C1=O` have recorded IC20 that is 800 nM or more?
True

Does IC20 meet or surpass 800 nM for `CC[C@@H](C)[C@@H]1NC(=O)[C@@H]2CCCN2C(=O)[C@H](Cc2ccccc2)N(C)C(=O)[C@H](Cc2ccccc2)NC(=O)[C@H](C(C)C)N(C)C(=O)[C@@H]([C@@H](C)CC)OC(=O)CN(C)C(=O)[C@H](CC(C)C)NC(=O)[C@H](C(C)C)N(C)C1=O` ?
False

Quick check: does `CC[C@@H](C)[C@@H]1NC(=O)[C@@H]2CCCN2C(=O)[C@H](Cc2ccccc2)N(C)C(=O)[C@H](Cc2ccccc2)NC(=O)[C@H](C(C)C)N(C)C(=O)[C@@H](C(C)C)OC(=O)[C@H](C(C)(C)O)N(C)C(=O)[C@H](CC(C)C)NC(=O)[C@H](C(C)C)N(C)C1=O` have IC20 greater than or equal to 800 nM?
False
